This collection of values is drawn from patent US8026218.

biological target: T1, human NK1 receptor (human, UniProt P25103 1-407); experiment: competition vs [3H]Substance P, hNK1 CHO cell membranes
T1 construct: whole, on cells; membrane preparations of the transfected cells were used; also called hNK1; human neurokinin-1 receptor
T1 sequence (P25103 whole entry): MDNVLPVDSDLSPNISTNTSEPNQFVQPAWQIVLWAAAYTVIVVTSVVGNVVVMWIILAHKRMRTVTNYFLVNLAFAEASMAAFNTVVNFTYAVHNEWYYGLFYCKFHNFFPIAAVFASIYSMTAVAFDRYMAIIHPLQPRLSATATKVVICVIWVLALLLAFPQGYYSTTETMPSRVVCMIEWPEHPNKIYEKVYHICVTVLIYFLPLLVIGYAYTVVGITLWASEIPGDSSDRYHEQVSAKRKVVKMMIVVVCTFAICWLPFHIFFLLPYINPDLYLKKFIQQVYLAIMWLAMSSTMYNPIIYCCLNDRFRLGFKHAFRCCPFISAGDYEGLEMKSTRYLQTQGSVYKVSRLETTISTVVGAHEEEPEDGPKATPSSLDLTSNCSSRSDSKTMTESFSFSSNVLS
pKi: −log10 of the molar value. Square brackets hold non-standard residues; d marks the D form. Primed or numbered codes have the meaning given here. Ends that are not written are not given here. O‑Bzl(CF3)2 = C-terminal bis(trifluoromethyl)benzyl ester; O‑Bzl(CF3)2″ = C-terminal Bzl(CF3)2 ester; Abu = CC[C@H](N)C(=O)O; Aib = CC(C)(N)C(=O)O
METRIC: pKi

INSERT INTO measurements (binder, quantitative_result) VALUES
  ('Y[dA]GFPW-{O‑Bzl(CF3)2} (also called NP39) [Tyr-DAla-Gly-Phe-Pro-Trp-O-Bzl(CF3)2]', 10.00),
  ('Y[dA]GF[Aib]W-{O‑Bzl(CF3)2″} (also called NP41) [Tyr-DAla-Gly-Phe-Aib-Trp-O-Bzl(CF3)2]', 11.10),
  ('Y[dA]GF[Abu]W-{O‑Bzl(CF3)2} (also called NP33) [Tyr-DAla-Gly-Phe-α-Abu-Trp-O-Bzl(CF3)2]', 9.92),
  ('Y[dA]GFMW-{O‑Bzl(CF3)2} (also called NP38) [Tyr-DAla-Gly-Phe-Met-Trp-O-Bzl(CF3)2]', 11.05),
  ('Y[dA]GF[dA]W-{O‑Bzl(CF3)2} (also called NP40) [Tyr-DAla-Gly-Phe-D-Ala-Trp-O-Bzl(CF3)2]', 10.96),
  ('Y[dA]GFXW-{O‑Bzl(CF3)2} (not fully specified (residue 5); printed as Tyr-DAla-Gly-Phe-γ-Abu-Trp-O-Bzl(CF3)2, also called NP34) [Tyr-DAla-Gly-Phe-γ-Abu-Trp-O-Bzl(CF3)2]', 12.00),
  ('Y[dA]GFLW-{O‑Bzl(CF3)2} (also called NP37) [Tyr-DAla-Gly-Phe-Leu-Trp-O-Bzl(CF3)2]', 10.05);
